Experiment: Aqueous solubility (CheqSol method, Sirius T3)
Type: physicochemical
Conditions: water, aqueous buffer, thermodynamic from solid
Attribute: solubility
Measured Attribute: solubility (mM)

1. COC(=O)C12C3C4C5C1C2C3C45C(=O)O (stereo not drawn)
210
2. COC(=O)C12C3C4C1C1C2C3C41C(=O)O (stereo not drawn)
149
3. COC(=O)c1ccc(C(=O)O)cc1
1.38

====

Assay: logP measurement (Sirius T3, potentiometric shake-flask method, n-octanol/water)
Type: physicochemical
Conditions: n-octanol and water
Measured Attribute: logP

1) COC(=O)c1ccc(C(=O)O)cc1
2.02
2) COC(=O)C12C3C4C1C1C2C3C41C(=O)O (stereo not shown)
0.02
3) COC(=O)C12C3C4C5C1C2C3C45C(=O)O (stereo not shown)
0.72
4) C[C@@H]1CN(c2ccc(NC(=O)C34C5C6C3C3C4C3(c3ccc(OC(F)(F)F)cc3)C65)cn2)C[C@H](C)O1 (stereo partly shown)
4.74

====

Test: Mouse liver microsome stability
Type: in vitro ADME
Conditions: CD1, mouse, liver microsomes, pH 7.4; 1 µM compound, 0.5 mg/mL protein, NADPH, 37 °C; read-out: mouse liver microsome stability t1/2
Measured Attribute: half-life at 1 µM

1. C[C@@H]1CN(c2ccc(NC(=O)C34C5C6C3C3C4C3(c3ccc(OC(F)(F)F)cc3)C65)cn2)C[C@H](C)O1 (stereo partly shown)
23 min

====

Experiment: Human liver microsome stability
Type: in vitro ADME
Details: liver microsomes, pH 7.4, 1 µM compound, 0.5 mg/mL protein, NADPH, 37 °C
Measured Attribute: microsomal CLint at 1 µM

1) C[C@@H]1CN(c2ccc(NC(=O)C34C5C6C3C3C4C3(c3ccc(OC(F)(F)F)cc3)C65)cn2)C[C@H](C)O1 (stereo partly shown)
76 µL/min/mg

====

Test: pKa in H2O by pH-metric titration (Sirius T3)
Format: physicochemical
Conditions: water, average of 3 measurements
Measured Attribute: pKa

1. COC(=O)C12C3C4C5C1C2C3C45C(=O)O (stereo not drawn)
3.99
2. COC(=O)C12C3C4C1C1C2C3C41C(=O)O (stereo not drawn)
3.96
3. COC(=O)c1ccc(C(=O)O)cc1
3.84
